Kindly state Tumor volume for each of the entries shown.
- Test system: HCT116 colon cancer cells
- TEST_DESCRIPTION: In vivo anti-cancer activity by oral administration, HCT116 tumor in nude mice
- Design: species or system BALB/c nu/nu mice
- ASSAY_CONDITIONS: day 3, 20 mg/kg oral once a day
Provide the measurement as a number trailed by its unit.

Here are 3 compounds together with their reported answers.
INSERT INTO results (compound, observation_type, observed_value) VALUES
  ('Cc1cc(C23CC4CC(CC(C4)C2)C3)ccc1OCC(=O)N1CC[N+](C)(C)CC1.[I-] [Compound I-16]', 'Tumor volume', '24.2 ± 6.1 mm^3'),
  ('C[N+]1(C)CCN(C(=O)CCCOc2ccc(C34CC5CC(CC(C5)C3)C4)cc2)CC1.[I-] [Compound I-22]', 'Tumor volume', '20.4 ± 1.1 mm^3'),
  ('CN1CCN(C(=O)C(C)(C)Oc2ccc(C34CC5CC(CC(C5)C3)C4)cc2)CC1 [Compound I-23]', 'Tumor volume', '40.9 ± 8.2 mm^3');

Query compound follows.
Form field Tumor volume, entry C[N+](C)(C)CCNC(=O)CCOc1ccc(C23CC4CC(CC(C4)C2)C3)cc1.[I-] [Compound I-19] : 22.4 ± 5.6 mm^3
